List of inhibition at 100 µM values.
biological target: HER-2 kinase (GST-HIS6-Thrombin fusion, amino acids 679 to 1255 of HER-2) (Homo sapiens); construct: HIS6-Thrombin site (N); purchased Proqinase (Freiburg, Germany); assay: HER-2 Kinase Assay; assay type: biochemical; settings: test concentration of 100 μM; read-out: HER2 % inhibition
parameter: inhibition at 100 µM (%)

> print(dat)
                            compound.smiles  readout.number
1  COCCNC(=O)c1c(N)ncnc1Nc1ccc(OCc2ccccc2)c(Cl)c1              33
2  CCN(CC)C(=O)c1c(N)ncnc1Nc1ccc(OCc2ccccc2)c(Cl)c1              39
3  COc1ccc(CCNC(=O)c2c(N)ncnc2Nc2ccc(OCc3ccccc3)c(Cl)c2)cc1               4
4  COC(=O)c1c(N)ncnc1Nc1ccc(OCc2ccccc2)c(Cl)c1              92
5  Nc1ncnc(Nc2ccc(OCc3ccccc3)c(Cl)c2)c1C(=O)OCc1cccc(F)c1              21

====

Recorded inhibition at 100 µM values for a group of molecules are listed next.
biological target: HER-2 kinase (GST-HIS6-Thrombin fusion, amino acids 679 to 1255 of HER-2) (Homo sapiens, UniProt P04626); construct: HIS6-Thrombin site (N); purchased Proqinase (Freiburg, Germany); assay: HER-2 Kinase Assay; type: biochemical; details: test concentration of 100 μM; read-out: HER2 % inhibition
Sequence (P04626 679-1255): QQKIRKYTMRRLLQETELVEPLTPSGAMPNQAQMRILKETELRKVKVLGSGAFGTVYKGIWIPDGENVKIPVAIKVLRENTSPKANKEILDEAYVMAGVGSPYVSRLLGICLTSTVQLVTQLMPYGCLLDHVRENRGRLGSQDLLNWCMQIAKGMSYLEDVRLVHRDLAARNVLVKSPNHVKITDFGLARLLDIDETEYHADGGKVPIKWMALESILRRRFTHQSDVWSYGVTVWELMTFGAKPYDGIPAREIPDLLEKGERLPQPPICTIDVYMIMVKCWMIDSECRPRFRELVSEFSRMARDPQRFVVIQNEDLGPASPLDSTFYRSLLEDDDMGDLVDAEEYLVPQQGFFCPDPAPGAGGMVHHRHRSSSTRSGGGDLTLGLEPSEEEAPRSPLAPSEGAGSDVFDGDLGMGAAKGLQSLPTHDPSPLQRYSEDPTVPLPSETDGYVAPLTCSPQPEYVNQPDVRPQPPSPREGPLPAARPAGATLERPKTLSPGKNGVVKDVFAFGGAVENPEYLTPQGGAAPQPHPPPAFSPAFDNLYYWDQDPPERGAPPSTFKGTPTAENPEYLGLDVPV
parameter: inhibition at 100 µM (%)

> print(dat)
                            compound.smiles  measurement.units  readout.number
1   Nc1ncnc(Nc2ccc(OCc3ccccc3)c(Cl)c2)c1C=O                  %              63
2  Nc1ncnc(Nc2ccc(OCc3ccccc3)c(Cl)c2)c1C(=O)Nc1ccccc1                  %              12
3  Nc1ncnc(Nc2ccc(OCc3ccccc3)c(Cl)c2)c1C(=O)NCCN1CCOCC1                  %              82
4  COc1ccc(NC(=O)c2c(N)ncnc2Nc2ccc(OCc3ccccc3)c(Cl)c2)cc1                  %               0

====

Parameter inhibition at 2 µM: see the listing below.
target: EGFR kinase (GST fusion of intracellular portion of EGFR, NM_005228) (Homo sapiens, UniProt P00533); construct: The intracellular portion of EGFR started at nucleotide 2189 (corresponding to amino acid 667) and ended at the termination codon; made in house; host or cells: Sf9 insect cells (baculovirus); experiment: EGFR Kinase Assay; assay type: biochemical; conditions: test concentration of 2 μM
Sequence (P00533 669-1210 limits assumed): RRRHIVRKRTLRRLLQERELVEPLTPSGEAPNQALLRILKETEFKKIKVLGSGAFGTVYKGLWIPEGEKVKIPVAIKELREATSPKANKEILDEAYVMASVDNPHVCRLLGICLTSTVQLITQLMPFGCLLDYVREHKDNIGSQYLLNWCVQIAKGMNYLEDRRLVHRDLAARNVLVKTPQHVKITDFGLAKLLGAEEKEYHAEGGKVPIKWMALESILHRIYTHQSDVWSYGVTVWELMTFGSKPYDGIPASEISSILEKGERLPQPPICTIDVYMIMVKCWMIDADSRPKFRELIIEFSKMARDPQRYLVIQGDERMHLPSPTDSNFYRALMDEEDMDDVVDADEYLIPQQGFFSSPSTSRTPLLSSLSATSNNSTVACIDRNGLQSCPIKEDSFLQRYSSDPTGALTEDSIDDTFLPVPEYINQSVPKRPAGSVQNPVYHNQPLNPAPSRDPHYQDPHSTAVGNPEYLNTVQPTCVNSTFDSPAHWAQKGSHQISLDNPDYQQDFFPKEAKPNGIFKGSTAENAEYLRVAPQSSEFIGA
parameter: inhibition at 2 µM (%)

> print(dat)
                            compound.smiles           parameter  readout.number
1  COCCNC(=O)c1c(N)ncnc1Nc1ccc(OCc2ccccc2)c(Cl)c1  inhibition at 2 µM              37
2  Nc1ncnc(Nc2ccc(OCc3ccccc3)c(Cl)c2)c1C(=O)NCCN1CCOCC1  inhibition at 2 µM              35
3  COc1ccc(NC(=O)c2c(N)ncnc2Nc2ccc(OCc3ccccc3)c(Cl)c2)cc1  inhibition at 2 µM              36
4  COc1ccc(CCNC(=O)c2c(N)ncnc2Nc2ccc(OCc3ccccc3)c(Cl)c2)cc1  inhibition at 2 µM              28
5  CCN(CC)C(=O)c1c(N)ncnc1Nc1ccc(OCc2ccccc2)c(Cl)c1  inhibition at 2 µM              36
6  Nc1ncnc(Nc2ccc(OCc3ccccc3)c(Cl)c2)c1C(=O)OCc1cccc(F)c1  inhibition at 2 µM              34
7  Nc1ncnc(Nc2ccc(OCc3ccccc3)c(Cl)c2)c1C(=O)NCCN1CCCCC1  inhibition at 2 µM              42
